Ref: PubChem BioAssay (NCI)

system: RXF 393 renal; assay: NCI tumour cell line growth inhibition, 48 h
experimental readout: TGI (µM)
Provide only the numeric value, understood in µM.

Example results:
{"columns": ["compound", "target or test system", "unit abbrev", "recorded measurement"],
 "data": [
  ["COc1cc(C)cc2c1[nH]c1ccccc12", "RXF 393 renal", "µM", 22.5],
  ["Clc1ccc(CNc2ccc3nc(CCC4CCCCC4)[nH]c3c2)cc1", "RXF 393 renal", "µM", 4.95]
]}

Reported TGI for RXF 393 renal, given CN1c2ccc(O)c(O)c2-c2cc(O)cc3c2C1CCC3 (configuration not stated) ?
24.3

Reported TGI for RXF 393 renal, given CCC(=O)c1c(C(F)(F)F)n([O-])c2cc(N3CCNCC3)c(F)cc2[n+]1=O ?
15.1
